Target: MT2 (Homo sapiens)
Test: HTRF cAMP assay, agonist mode cAMP
Type: cell-based
Details: pEC50, cAMP production inhibition, MT2, text
pEC50: −log10 of the molar value.
measurementName: pEC50

- molecule: "CCC(=O)NC1Cc2ccccc2C(c2ccccc2)C1 (stereo not shown) [4P‐PDOT, 4‐phenyl‐2‐propionamidotetraline, reference compound]"
  testedSystem: "MT2 (Homo sapiens)"
  measurementName: "pEC50"
  testResult: 8.70

* * *

Target: MT2 (Homo sapiens, UniProt P49286)
Sequence (P49286 whole entry): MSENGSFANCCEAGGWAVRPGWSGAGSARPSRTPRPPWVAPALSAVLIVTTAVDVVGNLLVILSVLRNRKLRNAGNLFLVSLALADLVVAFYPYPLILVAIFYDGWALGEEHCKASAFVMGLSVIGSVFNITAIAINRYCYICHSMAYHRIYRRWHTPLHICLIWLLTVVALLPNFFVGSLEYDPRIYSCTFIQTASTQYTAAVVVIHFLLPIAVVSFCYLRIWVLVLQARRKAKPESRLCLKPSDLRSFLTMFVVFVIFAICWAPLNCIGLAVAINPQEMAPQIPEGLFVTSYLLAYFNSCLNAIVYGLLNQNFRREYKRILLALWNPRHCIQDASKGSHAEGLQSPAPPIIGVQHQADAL
Experiment: Receptor internalization, U2O-S cells
Assay type: cell-based
pEC50: −log10 of the molar value.

- compound: "CC(=O)NCCc1c(Cc2ccccc2)[nH]c2ccccc12 [Luzindole, N‐acetyl‐2‐benzyltryptamine, reference compound]"
  pEC50: "~8.00"
